# experiment: Ferric-reducing antioxidant power (FRAP) assay
# test-conditions: concentration for 50% of maximal ferric-reducing capacity; mean ± SD, triplicate
Returns: string. Value is t if measured FRAP EC50 is below 400 µg/mL, and f if it is greater than or equal to it.

Record excerpt, results attached:
> print(dat)
                                   molecule  class
1   CC12CCC(CC1=O)C2(C)C (centres unmarked)      f
2                       C=CCc1ccc(O)c(OC)c1      t
3  Cc1cc(C(C)(C)C)c(O)c(C(C)(C)C)c1 [BHT, butylated hydroxytoluene, reference compound]      t

Exercise: For this molecule, is FRAP EC50 lower than 400 µg/mL? O=C1O[C@H]([C@@H](O)CO)C(O)=C1O [AA, ascorbic acid, reference compound]
Key: t
